- ASSAY REMARKS: AUC in Non human primate at 2.0 mg/kg, po or 1 mg/kg, iv
- Format: ADME, organism-based
- RECORDED CONDITIONS: primates, in vivo
VALUE KIND: AUC (µM·h)

> print(dat)
                         chemical.structure  readout.unit  recorded.measurement
1  Cc1cnc(-c2nc3c(F)c(-c4cccc5ccc(F)cc45)c(CCC#N)cc3c3c2cc([C@@H](C)N2CCOCC2=O)n3[C@H]2[C@H]3CN[C@@H]2C3)cn1          µM·h                 0.068

###

- ASSAY REMARKS: Half-life in Sprague-Dawley rat at 3 mg/kg, po or 0.1 mg/kg, iv measured after 24 hrs by LC-MS/MS analysis
- Type: ADME, organism-based
- RECORDED CONDITIONS: in vivo
VALUE KIND: half-life

> print(dat)
                         chemical.structure  recorded.measurement
1  Cc1cnc(-c2nc3c(F)c(-c4cccc5ccc(F)cc45)c(CCC#N)cc3c3c2cc([C@@H](C)N2CCOCC2=O)n3[C@H]2[C@H]3CN[C@@H]2C3)cn1                 2.5 h

###

Recorded IC50 for the following compounds
- ASSAYED TARGET: GTPase KRas (Homo sapiens, UniProt P01116, G12D)
- ASSAY REMARKS: Inhibition of bodipy-loaded KRAS G12D mutant (unknown origin) assessed as GDP-GTP exchange preincubated for 4 hrs followed by GppNHp and SOS1 addition and measured after 2 hrs by fluorescence based plate reader analysis
VALUE KIND: IC50

> print(dat)
                         chemical.structure  recorded.measurement
1  CN(C)C(=O)CCc1cc2c(OC[C@@]34CCCN3C[C@H](F)C4)nc3c(F)c(-c4cc(O)cc5ccccc45)c(CCC#N)cc3c2n1[C@H]1[C@H]2CN[C@@H]1C2                2.1 nM
2  CCOc1nc2c(F)c(-c3cc(O)cc4ccccc34)c(CCC#N)cc2c2c1cc(CCC(=O)N(C)C)n2[C@H]1[C@H]2CN[C@@H]1C2                3.8 nM
3  Cc1nc2c(F)c(-c3cccc4ccc(F)cc34)c(CCC#N)cc2c2c1cc(CN1CCOCC1=O)n2[C@H]1[C@H]2CN[C@@H]1C2                2.7 nM

###

Attribute: hepatic clearance at 1 µM
- ASSAY REMARKS: Intrinsic clearance in human liver microsomes at 1 uM measured upto 30 mins in presence of NADPH by LC/MS analysis
- Format: ADME, Microsome
- RECORDED CONDITIONS: read-out: CLH (converted)
VALUE KIND: hepatic clearance at 1 µM

> print(dat)
                         chemical.structure                 value.kind  recorded.measurement
1  Cc1nc2c(F)c(-c3cccc4ccc(F)cc34)c(CCC#N)cc2c2c1cc(CN1CCCCC1=O)n2[C@H]1[C@H]2CN[C@@H]1C2  hepatic clearance at 1 µM      > 18.3 mL/min/kg
2  Cc1cc(-c2nc3c(F)c(-c4cccc5ccc(F)cc45)c(CCC#N)cc3c3c2cc([C@@H](C)N2CCOCC2=O)n3[C@H]2[C@H]3CN[C@@H]2C3)ccn1  hepatic clearance at 1 µM      > 18.3 mL/min/kg
3  CCOc1nc2c(F)c(-c3cc(O)cc4ccccc34)c(CCC#N)cc2c2c1cc(CN1CCCCC1=O)n2[C@H]1[C@H]2CN[C@@H]1C2  hepatic clearance at 1 µM      > 18.3 mL/min/kg
4  N#CCCc1cc2c(nc(-n3cncn3)c3cc(CN4CCOCC4=O)n([C@H]4[C@H]5CN[C@@H]4C5)c32)c(F)c1-c1cccc2ccc(F)cc12  hepatic clearance at 1 µM      > 18.3 mL/min/kg
5  CCOc1nc2c(F)c(-c3cccc4ccc(F)cc34)c(CCC#N)cc2c2c1cc(CCC(=O)N(C)C)n2[C@H]1[C@H]2CN[C@@H]1C2  hepatic clearance at 1 µM        11.7 mL/min/kg
6  Cc1cnc(-c2nc3c(F)c(-c4cccc5ccc(F)cc45)c(CCC#N)cc3c3c2cc([C@@H](C)N2CCOCC2=O)n3[C@H]2[C@H]3CN[C@@H]2C3)cn1  hepatic clearance at 1 µM      > 18.3 mL/min/kg
7  Cc1nc2c(F)c(-c3cccc4ccc(F)cc34)c(CCC#N)cc2c2c1cc(CN1CCOCC1=O)n2[C@H]1[C@H]2CN[C@@H]1C2  hepatic clearance at 1 µM      > 18.3 mL/min/kg
8  Cc1cnc(-c2nc3c(F)c(-c4cccc(Cl)c4C)c(CCC#N)cc3c3c2cc([C@@H](C)N2CCOCC2=O)n3[C@H]2[C@H]3CN[C@@H]2C3)cn1  hepatic clearance at 1 µM        16.7 mL/min/kg
9  CN(C)C(=O)CCc1cc2c(OC[C@@]34CCCN3C[C@H](F)C4)nc3c(F)c(-c4cc(O)cc5ccccc45)c(CCC#N)cc3c2n1[C@H]1[C@H]2CN[C@@H]1C2  hepatic clearance at 1 µM      > 18.3 mL/min/kg

Cited source: ChEMBL document CHEMBL6087482
